Source: patent US8765746B2

# target_or_test_system: PI3Kalpha (Homo sapiens)
# Construct: His (N); host or cells: SF9 insect cells (baculovirus)
# Sequence (P42336 whole entry): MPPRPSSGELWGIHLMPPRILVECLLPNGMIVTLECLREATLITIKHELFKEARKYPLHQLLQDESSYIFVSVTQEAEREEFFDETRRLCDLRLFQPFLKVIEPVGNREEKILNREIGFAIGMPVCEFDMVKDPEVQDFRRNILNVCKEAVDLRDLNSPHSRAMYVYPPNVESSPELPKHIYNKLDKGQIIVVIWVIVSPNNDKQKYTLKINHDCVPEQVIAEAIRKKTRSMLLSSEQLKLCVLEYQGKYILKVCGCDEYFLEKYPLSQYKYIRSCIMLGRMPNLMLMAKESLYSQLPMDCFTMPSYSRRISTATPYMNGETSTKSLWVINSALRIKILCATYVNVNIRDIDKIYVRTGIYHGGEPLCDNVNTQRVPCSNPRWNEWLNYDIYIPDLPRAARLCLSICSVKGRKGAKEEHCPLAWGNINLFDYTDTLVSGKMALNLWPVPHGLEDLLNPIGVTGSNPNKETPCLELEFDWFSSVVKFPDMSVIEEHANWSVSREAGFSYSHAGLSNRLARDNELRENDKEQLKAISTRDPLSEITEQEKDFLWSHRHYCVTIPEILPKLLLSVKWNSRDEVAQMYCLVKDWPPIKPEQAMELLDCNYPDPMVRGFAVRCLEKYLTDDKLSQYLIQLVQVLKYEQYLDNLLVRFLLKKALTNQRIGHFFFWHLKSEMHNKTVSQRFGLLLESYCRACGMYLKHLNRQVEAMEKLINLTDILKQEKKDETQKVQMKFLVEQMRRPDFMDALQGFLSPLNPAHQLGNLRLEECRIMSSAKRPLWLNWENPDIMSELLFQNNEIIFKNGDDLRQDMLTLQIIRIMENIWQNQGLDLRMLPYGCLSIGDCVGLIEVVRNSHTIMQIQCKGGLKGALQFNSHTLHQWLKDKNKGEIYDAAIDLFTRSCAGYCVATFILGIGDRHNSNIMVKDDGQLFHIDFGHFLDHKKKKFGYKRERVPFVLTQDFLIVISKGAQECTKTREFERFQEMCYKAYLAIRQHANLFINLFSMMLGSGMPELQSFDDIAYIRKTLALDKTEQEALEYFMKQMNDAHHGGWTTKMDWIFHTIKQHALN
# Sequence (P27986 whole entry partner): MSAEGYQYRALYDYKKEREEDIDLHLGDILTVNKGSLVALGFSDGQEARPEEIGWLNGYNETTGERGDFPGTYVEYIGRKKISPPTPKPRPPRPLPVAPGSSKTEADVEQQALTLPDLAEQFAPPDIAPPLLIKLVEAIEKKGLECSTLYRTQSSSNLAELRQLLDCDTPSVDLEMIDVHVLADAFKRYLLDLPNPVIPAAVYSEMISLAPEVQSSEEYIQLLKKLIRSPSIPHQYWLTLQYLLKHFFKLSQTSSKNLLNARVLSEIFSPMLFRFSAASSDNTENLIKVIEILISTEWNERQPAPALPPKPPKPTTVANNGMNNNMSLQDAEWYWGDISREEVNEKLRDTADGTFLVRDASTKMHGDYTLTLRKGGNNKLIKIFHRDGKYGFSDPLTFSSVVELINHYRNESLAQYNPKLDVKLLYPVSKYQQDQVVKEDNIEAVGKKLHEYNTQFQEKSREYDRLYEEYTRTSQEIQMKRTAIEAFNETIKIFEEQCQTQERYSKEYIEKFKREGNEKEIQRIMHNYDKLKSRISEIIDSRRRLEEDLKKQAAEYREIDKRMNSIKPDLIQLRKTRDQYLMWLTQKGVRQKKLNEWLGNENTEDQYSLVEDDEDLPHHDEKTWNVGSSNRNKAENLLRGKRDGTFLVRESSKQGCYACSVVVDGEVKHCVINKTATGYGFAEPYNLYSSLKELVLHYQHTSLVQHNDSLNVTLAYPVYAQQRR
# assay_procedure: Human PI3Kα enzyme assay (HTRF)
# Format: biochemical
# measurement_context: read-out: PI3Kalpha % inh
property_measured: inhibition at 1.11 µM (%)
Answers are plain numbers, in %.

compound="O=C1NCC(c2ccc(Cl)c(Cl)c2)c2cc(N3CCOCC3)sc21 (centres unmarked) [Compound 208]" unit_abbreviation=% reading=18.4
compound="CC(=O)Nc1cc(-c2cc3c(s2)C(=O)CC3c2ccc(Cl)cc2)ccn1 (centres unmarked) [Compound 16]" unit_abbreviation=% reading=24.5
compound="O=S1(=O)NC=C(c2ccc(Cl)cc2)c2cc(-c3ccncc3)sc21 [Compound 27]" unit_abbreviation=% reading=4.9
compound="Clc1ccc(C2CCc3cn[nH]c3-c3sc(-c4ccncc4)cc32)cc1 (centres unmarked) [Compound 6]" unit_abbreviation=% reading=27

We next turn to a different compound, shown below.
Query block: Fill in the blank: the reported inhibition at 1.11 µM of N#Cc1c(N2CCOCC2)sc2c1C(c1c(F)cc(Cl)cc1F)CCNC2=O (centres unmarked) [Compound 155] is ____.
Result block: 64.7
